Source: paper PMC9942528

Test: Stability assay in rat liver microsomes
Format: in vitro ADME
Details: rat, rat liver microsomes, pH 7.4
Consider the following compounds; for each one, report its microsomal CLint at 2 h, 10 µM.
Note: unit µL/min/mg is implicit; provide only the numeric part.

Please report the recorded microsomal CLint at 2 h, 10 µM for N#Cc1ccc(C[C@H](NC(=O)Nc2ccc(F)cc2)C(=O)N2CCc3ccccc32)cc1 [(S)-11e] .
33

Field entry: N#Cc1ccc(C[C@H](NC(=O)Nc2ccc(F)cc2)C(=O)N2Cc3ccc(F)cc3C2)cc1 [(S)-11j]
4.1

Entry N#Cc1ccc(C[C@@H](NC(=O)Nc2ccc(F)cc2)C(=O)N2CCc3ccc(F)cc32)cc1 [(R)-11l] please
23.3

What do you get for N#Cc1ccc(C[C@H](NC(=O)Nc2ccc(F)cc2)C(=O)N2CCCCC2)cc1 [(S)-11b] ?
13.9

Lookup N#Cc1ccc(C[C@@H](NC(=O)Nc2ccc(F)cc2)C(=O)N2CCc3cc(F)ccc32)cc1 [(R)-11i]
6.4
